MIC reference
System: Bacteroides fragilis
assay.remarks: Antibacterial activity against Bacteroides fragilis UC12199
Type: functional

smiles_entry=CC(=O)NC[C@@H]1OC(=O)N2c3ccc(C(C)=O)cc3C[C@H]12 observed_value="> 16 µg/mL"
smiles_entry=CC(=O)NC[C@@H]1OC(=O)N2c3ccc(S(=O)(=O)N(C)CCCO)cc3C[C@@H]12 observed_value="> 32 µg/mL"

We next turn to a different compound, shown below.
Query CC(=O)NC[C@@H]1OC(=O)N2c3ccc(C(C)=O)cc3CC[C@H]12 yields MIC of > 16 µg/mL

###

Tested on: Bacteroides fragilis
assay.remarks: Antibacterial activity against Bacteroides fragilis UC12199
Type: functional
MIC reference

Guide cases for MIC, answers given:
smiles_entry=CC(=O)NC[C@@H]1OC(=O)N2c3ccc(-c4ccc(C#N)cc4)cc3C[C@@H]12 experimental_readout=MIC observed_value="32 µg/mL"
smiles_entry=CCNS(=O)(=O)c1ccc2c(c1)C[C@H]1[C@H](CNC(C)=O)OC(=O)N21 experimental_readout=MIC observed_value="> 32 µg/mL"

We next turn to a different molecule, shown below.
Query CC(=O)NC[C@@H]1OC(=O)N2c3ccc(S(C)(=O)=O)cc3C[C@@H]12 yields MIC of > 32 µg/mL

###

System: Enterococcus faecalis
assay.remarks: Antibacterial activity against Enterococcus faecalis UC9217
Type: functional
experimental.readout: MIC (µg/mL)
Output spec: scalar in µg/mL, unitless text.

Guide cases for MIC, answers given:
compound=CC(=O)NC[C@@H]1OC(=O)N2c3ccc(-c4cccnc4)cc3CC[C@@H]12 uom=µg/mL observed_value=32
compound="CC(=O)NCC1OC(=O)N2c3ccc(C(C)=O)cc3CC12 (single isomer, unassigned; (+))" uom=µg/mL observed_value=4

Query CC(=O)NC[C@H]1CN(c2ccc(N3CCOCC3)cc2)C(=O)O1 yields MIC of 4

Query CC(=O)NC[C@@H]1OC(=O)N2c3ccc(N4CCOCC4)cc3C[C@@H]12 yields MIC of 128

Query CC(=O)NC[C@@H]1OC(=O)N2c3ccc(-c4ccccc4)cc3C[C@@H]12 yields MIC of 4

###

Tested on: Enterococcus faecalis
assay.remarks: Antibacterial activity against Enterococcus faecalis UC9217
Format: functional
log10(MIC) reference
Scale: log10; quantity: MIC; unit before log: µg/mL

Guide cases for log10(MIC), answers given:
compound="CC(=O)NC[C@H]1CN(c2ccc(C(C)=O)cc2)C(=O)O1 (racemic)" tgt="Enterococcus faecalis" experimental_readout=log10(MIC) observed_value=0.90
compound=CC(=O)NC[C@@H]1OC(=O)N2c3ccc(C(C)=O)cc3C[C@@H]12 tgt="Enterococcus faecalis" experimental_readout=log10(MIC) observed_value=1.20
compound=CC(=O)NC[C@@H]1OC(=O)N2c3ccc(-c4cccnc4)cc3C[C@@H]12.Cl tgt="Enterococcus faecalis" experimental_readout=log10(MIC) observed_value=0.30
compound=CC(=O)NC[C@@H]1OC(=O)N2c3ccc(-c4cncnc4)cc3C[C@@H]12 tgt="Enterococcus faecalis" experimental_readout=log10(MIC) observed_value=0.60

Query CC(=O)NC[C@@H]1OC(=O)N2c3ccc(-c4ccncc4)cc3C[C@@H]12 yields log10(MIC) of 0.30

Query CC(=O)NC[C@@H]1OC(=O)N2c3ccc(-c4cccnc4)cc3C[C@@H]12 yields log10(MIC) of 0.30

Query CC(=O)NC[C@@H]1OC(=O)N2c3ccc(-c4ccc(C#N)cc4)cc3C[C@@H]12 yields log10(MIC) of 0.30

Query CC(=O)NC[C@@H]1OC(=O)N2c3ccc(S(C)(=O)=O)cc3C[C@@H]12 yields log10(MIC) of 1.81

Query CN[C@H](CC(C)C)C(=O)N[C@H]1C(=O)N[C@@H](CC(N)=O)C(=O)N[C@H]2C(=O)N[C@H]3C(=O)N[C@H](C(=O)N[C@H](C(=O)O)c4cc(O)cc(O)c4-c4cc3ccc4O)[C@H](O)c3ccc(c(Cl)c3)Oc3cc2cc(c3O[C@@H]2O[C@H](CO)[C@@H](O)[C@H](O)[C@H]2O[C@H]2C[C@](C)(N)[C@H](O)[C@H](C)O2)Oc2ccc(cc2Cl)[C@H]1O yields log10(MIC) of 0.60
